Target: T1, O772P 3-repeat recombinant protein (human)
T1 construct: Repeats are residues 14-452 of the entry
T1 chain: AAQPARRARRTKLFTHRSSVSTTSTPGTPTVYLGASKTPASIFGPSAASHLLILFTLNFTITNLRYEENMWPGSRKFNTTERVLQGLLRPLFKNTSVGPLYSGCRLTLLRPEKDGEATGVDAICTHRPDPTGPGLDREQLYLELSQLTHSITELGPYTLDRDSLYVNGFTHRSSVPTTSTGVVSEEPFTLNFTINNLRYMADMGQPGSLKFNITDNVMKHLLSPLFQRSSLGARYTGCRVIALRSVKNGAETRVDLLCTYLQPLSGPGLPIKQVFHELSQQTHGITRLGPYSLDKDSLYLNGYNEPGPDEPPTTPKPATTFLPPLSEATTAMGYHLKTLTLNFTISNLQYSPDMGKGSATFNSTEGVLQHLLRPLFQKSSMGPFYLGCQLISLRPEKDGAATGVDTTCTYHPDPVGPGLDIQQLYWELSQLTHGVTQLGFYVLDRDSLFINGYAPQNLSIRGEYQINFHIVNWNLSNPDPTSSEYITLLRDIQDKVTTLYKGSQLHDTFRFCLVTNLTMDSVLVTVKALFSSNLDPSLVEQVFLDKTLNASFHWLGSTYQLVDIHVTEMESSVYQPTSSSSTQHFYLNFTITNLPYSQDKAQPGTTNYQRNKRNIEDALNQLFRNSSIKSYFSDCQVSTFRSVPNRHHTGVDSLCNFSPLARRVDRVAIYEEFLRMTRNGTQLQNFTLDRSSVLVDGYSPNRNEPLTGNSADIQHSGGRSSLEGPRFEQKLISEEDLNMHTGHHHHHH
Experiment: ELISA, plate-bound O772P 3-repeat
PROPERTY MEASURED: absorbance (OD)
Write down the numeric answer in OD and omit the unit.

monoclonal antibody 501.1 (antibody, V domains shown, Murine hybridoma antibody) VH: QIQLVQSGPELKKPGETVQISCKASGYIFTDYGMNWVKQAPGKGLKWMGCINTYTGETIYSDDFRGRFAISLETSASTAFIQINNLKNEDAATYFCARGNYRDAIDYWGQGTSVTVSS VL: DIKMTQSPSSIYASLGERVTITCKASQDIKSYLSWYQQKPWKSPKTLIYYATTLADGVPSRFSGSGSGQDYSLIINSLESDDIATYFCLHHDESPFTFGSGTKLEI    0.856
monoclonal antibody 776.1 (antibody, V domains shown) VH: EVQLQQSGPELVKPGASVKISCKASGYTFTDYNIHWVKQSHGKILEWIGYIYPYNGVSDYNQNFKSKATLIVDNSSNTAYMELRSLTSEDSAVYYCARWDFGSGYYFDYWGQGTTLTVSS VL: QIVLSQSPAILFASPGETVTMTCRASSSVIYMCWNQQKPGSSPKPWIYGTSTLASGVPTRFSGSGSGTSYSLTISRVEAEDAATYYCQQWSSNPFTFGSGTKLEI    1.18
monoclonal antibody 368.1 (antibody, V domains shown, Murine hybridoma antibody) VH: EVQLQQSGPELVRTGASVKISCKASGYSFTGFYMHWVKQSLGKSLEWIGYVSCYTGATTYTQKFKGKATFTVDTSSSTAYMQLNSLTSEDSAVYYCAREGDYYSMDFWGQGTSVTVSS VL: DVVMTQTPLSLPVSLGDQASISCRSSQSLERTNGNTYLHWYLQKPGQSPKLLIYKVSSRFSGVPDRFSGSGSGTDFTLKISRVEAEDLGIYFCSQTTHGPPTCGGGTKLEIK    1.29

Reported absorbance (OD) of monoclonal antibody 117.1 (antibody, V domains shown, Murine hybridoma antibody) VH: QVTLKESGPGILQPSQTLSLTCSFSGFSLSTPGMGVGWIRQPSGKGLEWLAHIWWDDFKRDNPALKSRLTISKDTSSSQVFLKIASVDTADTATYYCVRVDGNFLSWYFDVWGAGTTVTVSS VL: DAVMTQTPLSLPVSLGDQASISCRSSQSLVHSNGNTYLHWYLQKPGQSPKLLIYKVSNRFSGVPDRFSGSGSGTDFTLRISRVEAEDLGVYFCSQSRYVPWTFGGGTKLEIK : 0.619

Reported absorbance (OD) of OC125 (antibody) chain 1: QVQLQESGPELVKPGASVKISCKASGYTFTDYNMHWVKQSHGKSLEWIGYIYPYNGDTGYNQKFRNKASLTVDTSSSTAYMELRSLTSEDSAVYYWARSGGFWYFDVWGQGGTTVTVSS chain 2: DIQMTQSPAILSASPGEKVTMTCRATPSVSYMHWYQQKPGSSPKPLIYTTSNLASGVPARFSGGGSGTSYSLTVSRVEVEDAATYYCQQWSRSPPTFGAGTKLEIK : 0.73

Provenance of the data: patent US20050064518A1
